- TGT: Sigma non-opioid intracellular receptor 1 (Cavia porcellus)
- Sequence (Q60492 whole entry): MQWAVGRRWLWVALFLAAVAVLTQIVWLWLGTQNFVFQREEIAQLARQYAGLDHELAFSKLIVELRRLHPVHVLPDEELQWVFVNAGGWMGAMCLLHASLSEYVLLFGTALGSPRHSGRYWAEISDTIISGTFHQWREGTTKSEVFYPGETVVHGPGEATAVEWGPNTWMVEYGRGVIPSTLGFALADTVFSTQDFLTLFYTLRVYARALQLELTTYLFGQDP
- PROTOCOL SUMMARY: Displacement of [3H]-(+)-pentazocine from sigma-1 receptor in Dunkin Hartley guinea pig brain membranes after 180 mins by liquid scintillation counting analysis
pKi: −log10 of the molar value.
READOUT TYPE: pKi

Take a look at these entries with their results.
{"columns": ["COMPOUND SMILES", "DATA VALUE"],
 "data": [
  ["Cc1cc(OCCCN2CCOCC2)nc(-c2ccccc2)n1", 7.44],
  ["c1ccc(-c2nc(OCCCN3CCCCC3)cc(C3CC3)n2)cc1", 6.60]
]}

[a] CCCc1cc(OCCCN2CCCCC2)nc(-c2ccccc2)n1
[b] Cc1nc(-c2ccccc2)nc(OCCCN2CCCC2)c1F
Problem: So which one has the bigger pKi here, a or b ? In your reply, give the label of the chosen option.
Solution: b
(b: 8.45, a: 7.46)

[A] FC(F)(F)c1cc(OCCCN2CCCCC2)nc(-c2ccccc2)n1
[B] Cc1cc(OCCCN2CCC(=O)CC2)nc(-c2ccccc2)n1
Problem: # argmax over pKi for candidates A and B Identify your selection by its label.
Solution: A
(A: 7.56, B: 6.50)

[P] Cc1cc(OCCCN2CCNCC2)nc(-c2ccccc2)n1
[Q] Cc1cc(OCCCN2CCC(C)CC2)nc(-c2ccccc2)n1
Problem: Lower value for measured pKi? Options: P , Q When you have decided, please share the label of that item.
Solution: P
